molecular target: BaF3 BRAF-KIAA1549 fusion cells (Homo sapiens, UniProt P15056); construct: The BRAF-KIAA1549 fusion mutant was subcloned into pMXs-IRES-Blasticidin (RTV-016, Cell Biolabs, San Diego, CA); fused on or other part: Q9HCM3 (UPF0606 protein KIAA1549); experiment: BaF3 BRAF-KIAA1549 fusion cell proliferation assay (CellTiterGlo); type: cell-based; details: 96 hours incubation, potency code
Sequence (P15056 whole entry, change not shown, the tested form may be a part): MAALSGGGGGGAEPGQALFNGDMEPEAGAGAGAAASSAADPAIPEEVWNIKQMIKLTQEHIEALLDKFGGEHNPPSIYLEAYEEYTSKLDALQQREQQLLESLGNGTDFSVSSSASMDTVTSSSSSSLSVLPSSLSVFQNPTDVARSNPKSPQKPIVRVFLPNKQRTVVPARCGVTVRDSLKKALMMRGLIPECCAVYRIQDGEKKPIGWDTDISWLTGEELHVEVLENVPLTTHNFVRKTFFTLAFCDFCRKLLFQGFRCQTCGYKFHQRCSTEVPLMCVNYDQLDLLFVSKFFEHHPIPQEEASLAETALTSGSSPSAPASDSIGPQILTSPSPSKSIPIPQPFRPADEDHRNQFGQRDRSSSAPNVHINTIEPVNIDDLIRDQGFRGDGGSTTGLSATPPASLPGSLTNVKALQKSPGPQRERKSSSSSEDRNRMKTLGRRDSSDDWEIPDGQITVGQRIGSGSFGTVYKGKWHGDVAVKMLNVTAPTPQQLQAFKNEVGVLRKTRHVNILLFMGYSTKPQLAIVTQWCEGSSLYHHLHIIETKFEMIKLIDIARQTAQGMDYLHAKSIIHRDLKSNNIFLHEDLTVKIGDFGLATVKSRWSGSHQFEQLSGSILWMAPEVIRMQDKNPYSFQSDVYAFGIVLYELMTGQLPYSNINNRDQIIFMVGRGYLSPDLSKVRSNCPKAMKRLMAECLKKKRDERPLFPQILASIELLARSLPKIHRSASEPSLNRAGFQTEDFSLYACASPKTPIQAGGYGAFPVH
Readout Label: GI50

Some molecules with recorded GI50:
Please fill in: GI50 reported for COc1nc2c(-c3nccnc3Nc3cc(NC(=O)c4cc(C(F)(F)F)ccn4)ccc3C)ncnc2[nH]1 = 20 to 100 nM

Please fill in: GI50 reported for Cc1ccc(NC(=O)c2cc(C(F)F)c(C)cn2)cc1Nc1ncccc1-c1ncnc2[nH]cnc12 = 20 to 100 nM

Others:
Please fill in: GI50 reported for Cc1cnc(C(=O)Nc2ccc(C)c(Nc3ncccc3-c3ncnc4[nH]cnc34)c2)cc1C#N = 20 to 100 nM
